Biological target: Urotensin-2 receptor (Homo sapiens, UniProt Q9UKP6)
Sequence (Q9UKP6 whole entry): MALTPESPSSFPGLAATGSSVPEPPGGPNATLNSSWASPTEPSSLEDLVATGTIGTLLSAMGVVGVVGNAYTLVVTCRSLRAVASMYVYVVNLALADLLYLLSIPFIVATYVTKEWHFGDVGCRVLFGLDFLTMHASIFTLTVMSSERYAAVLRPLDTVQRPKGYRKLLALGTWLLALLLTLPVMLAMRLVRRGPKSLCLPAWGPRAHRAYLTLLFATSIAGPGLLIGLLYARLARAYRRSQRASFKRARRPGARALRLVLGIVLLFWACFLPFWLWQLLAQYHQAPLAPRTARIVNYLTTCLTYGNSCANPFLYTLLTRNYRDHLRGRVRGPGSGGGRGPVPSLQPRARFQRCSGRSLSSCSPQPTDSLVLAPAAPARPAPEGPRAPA
Test: Displacement of [125I]urotensin-2 from human recombinant UT receptor expressed in CHO-K1 cells by scintillation counting method
Peptide text beside a SMILES is read from it.
readout: pKi
A value of pKi is the negative decimal logarithm of a concentration given in moles per litre.

- molecule: "CC(C)[C@H](NC(=O)[C@@H]1CSSC(C)(C)[C@H](NC(=O)[C@@H](N)CC(=O)O)C(=O)N[C@@H](Cc2ccccc2)C(=O)N[C@@H](Cc2c[nH]c3ccccc23)C(=O)N[C@@H](CCCCN)C(=O)N[C@@H](Cc2nc3ccccc3s2)C(=O)N1)C(=O)O (HELM PEPTIDE1{D.[Pen].F.W.K.[O=C([C@H](Cc1nc2ccccc2s1)N[*:1])[*:2]].C.V}$PEPTIDE1,PEPTIDE1,2:R3-7:R3$$$V2.0)"
  test target: "Urotensin-2 receptor (Homo sapiens, UniProt Q9UKP6)"
  readout: "pKi"
  data value: 8.76
- molecule: "CC(C)[C@H](NC(=O)[C@@H]1CSSC(C)(C)[C@H](NC(=O)[C@@H](N)CC(=O)O)C(=O)N[C@@H](Cc2ccccc2)C(=O)N[C@H](Cc2c[nH]c3ccccc23)C(=O)N[C@@H](CCCN)C(=O)N[C@@H](Cc2ccc(Cl)cc2)C(=O)N1)C(=O)O"
  test target: "Urotensin-2 receptor (Homo sapiens, UniProt Q9UKP6)"
  readout: "pKi"
  data value: 8.98
- molecule: "CC(C)[C@H](NC(=O)[C@@H]1CSSC(C)(C)[C@H](NC(=O)[C@@H](N)CC(=O)O)C(=O)N[C@@H](Cc2ccccc2)C(=O)N[C@H](Cc2c[nH]c3ccccc23)C(=O)N[C@@H](CCCN)C(=O)N[C@@H](Cc2cccc3ccccc23)C(=O)N1)C(=O)O"
  test target: "Urotensin-2 receptor (Homo sapiens, UniProt Q9UKP6)"
  readout: "pKi"
  data value: 8.19

Hello, I am looking for reported pKi with Urotensin-2 receptor (Homo sapiens, UniProt Q9UKP6) for CC(C)[C@H](NC(=O)[C@@H]1CSSC[C@H](NC(=O)[C@@H](N)CC(=O)O)C(=O)N[C@@H](Cc2ccccc2)C(=O)N[C@@H](Cc2c[nH]c3ccccc23)C(=O)N[C@@H](CCCCN)C(=O)N[C@@H](Cc2ccc(O)cc2)C(=O)N1)C(=O)O (HELM PEPTIDE1{D.C.F.W.K.Y.C.V}$PEPTIDE1,PEPTIDE1,2:R3-7:R3$$$V2.0) . Could you help? 9.60

Then CC(C)[C@H](NC(=O)[C@@H]1CSSC(C)(C)[C@H](NC(=O)[C@@H](N)CC(=O)O)C(=O)N[C@@H](Cc2ccccc2)C(=O)N[C@H](Cc2c[nH]c3ccccc23)C(=O)N[C@@H](CCCN)C(=O)N[C@@H](Cc2ccc(Cl)c(Cl)c2)C(=O)N1)C(=O)O ? 8.65

Then CC(C)[C@H](NC(=O)[C@@H]1CSSC(C)(C)[C@H](NC(=O)[C@@H](N)CC(=O)O)C(=O)N[C@@H](Cc2ccccc2)C(=O)N[C@@H](Cc2c[nH]c3ccccc23)C(=O)N[C@@H](CCCCN)C(=O)N[C@@H](Cc2cccc3ccccc23)C(=O)N1)C(=O)O (HELM PEPTIDE1{D.[Pen].F.W.K.[O=C([C@H](Cc1cccc2ccccc12)N[*:1])[*:2]].C.V}$PEPTIDE1,PEPTIDE1,2:R3-7:R3$$$V2.0) ? 9.40
